molecules and their reported IC50
molecular target: ROS1 (Homo sapiens, UniProt P08922); construct: purchased Carna Biosciences 08-163; assay: ROS1 autophosphorylation inhibitory activity evaluation (ADP-Glo); assay type: biochemical; details: 200 nM inactive ROS1, ATP 1 mM, 25° C. 1.5 hours, ADP generated, four separate measurements
Sequence (P08922 28-2347): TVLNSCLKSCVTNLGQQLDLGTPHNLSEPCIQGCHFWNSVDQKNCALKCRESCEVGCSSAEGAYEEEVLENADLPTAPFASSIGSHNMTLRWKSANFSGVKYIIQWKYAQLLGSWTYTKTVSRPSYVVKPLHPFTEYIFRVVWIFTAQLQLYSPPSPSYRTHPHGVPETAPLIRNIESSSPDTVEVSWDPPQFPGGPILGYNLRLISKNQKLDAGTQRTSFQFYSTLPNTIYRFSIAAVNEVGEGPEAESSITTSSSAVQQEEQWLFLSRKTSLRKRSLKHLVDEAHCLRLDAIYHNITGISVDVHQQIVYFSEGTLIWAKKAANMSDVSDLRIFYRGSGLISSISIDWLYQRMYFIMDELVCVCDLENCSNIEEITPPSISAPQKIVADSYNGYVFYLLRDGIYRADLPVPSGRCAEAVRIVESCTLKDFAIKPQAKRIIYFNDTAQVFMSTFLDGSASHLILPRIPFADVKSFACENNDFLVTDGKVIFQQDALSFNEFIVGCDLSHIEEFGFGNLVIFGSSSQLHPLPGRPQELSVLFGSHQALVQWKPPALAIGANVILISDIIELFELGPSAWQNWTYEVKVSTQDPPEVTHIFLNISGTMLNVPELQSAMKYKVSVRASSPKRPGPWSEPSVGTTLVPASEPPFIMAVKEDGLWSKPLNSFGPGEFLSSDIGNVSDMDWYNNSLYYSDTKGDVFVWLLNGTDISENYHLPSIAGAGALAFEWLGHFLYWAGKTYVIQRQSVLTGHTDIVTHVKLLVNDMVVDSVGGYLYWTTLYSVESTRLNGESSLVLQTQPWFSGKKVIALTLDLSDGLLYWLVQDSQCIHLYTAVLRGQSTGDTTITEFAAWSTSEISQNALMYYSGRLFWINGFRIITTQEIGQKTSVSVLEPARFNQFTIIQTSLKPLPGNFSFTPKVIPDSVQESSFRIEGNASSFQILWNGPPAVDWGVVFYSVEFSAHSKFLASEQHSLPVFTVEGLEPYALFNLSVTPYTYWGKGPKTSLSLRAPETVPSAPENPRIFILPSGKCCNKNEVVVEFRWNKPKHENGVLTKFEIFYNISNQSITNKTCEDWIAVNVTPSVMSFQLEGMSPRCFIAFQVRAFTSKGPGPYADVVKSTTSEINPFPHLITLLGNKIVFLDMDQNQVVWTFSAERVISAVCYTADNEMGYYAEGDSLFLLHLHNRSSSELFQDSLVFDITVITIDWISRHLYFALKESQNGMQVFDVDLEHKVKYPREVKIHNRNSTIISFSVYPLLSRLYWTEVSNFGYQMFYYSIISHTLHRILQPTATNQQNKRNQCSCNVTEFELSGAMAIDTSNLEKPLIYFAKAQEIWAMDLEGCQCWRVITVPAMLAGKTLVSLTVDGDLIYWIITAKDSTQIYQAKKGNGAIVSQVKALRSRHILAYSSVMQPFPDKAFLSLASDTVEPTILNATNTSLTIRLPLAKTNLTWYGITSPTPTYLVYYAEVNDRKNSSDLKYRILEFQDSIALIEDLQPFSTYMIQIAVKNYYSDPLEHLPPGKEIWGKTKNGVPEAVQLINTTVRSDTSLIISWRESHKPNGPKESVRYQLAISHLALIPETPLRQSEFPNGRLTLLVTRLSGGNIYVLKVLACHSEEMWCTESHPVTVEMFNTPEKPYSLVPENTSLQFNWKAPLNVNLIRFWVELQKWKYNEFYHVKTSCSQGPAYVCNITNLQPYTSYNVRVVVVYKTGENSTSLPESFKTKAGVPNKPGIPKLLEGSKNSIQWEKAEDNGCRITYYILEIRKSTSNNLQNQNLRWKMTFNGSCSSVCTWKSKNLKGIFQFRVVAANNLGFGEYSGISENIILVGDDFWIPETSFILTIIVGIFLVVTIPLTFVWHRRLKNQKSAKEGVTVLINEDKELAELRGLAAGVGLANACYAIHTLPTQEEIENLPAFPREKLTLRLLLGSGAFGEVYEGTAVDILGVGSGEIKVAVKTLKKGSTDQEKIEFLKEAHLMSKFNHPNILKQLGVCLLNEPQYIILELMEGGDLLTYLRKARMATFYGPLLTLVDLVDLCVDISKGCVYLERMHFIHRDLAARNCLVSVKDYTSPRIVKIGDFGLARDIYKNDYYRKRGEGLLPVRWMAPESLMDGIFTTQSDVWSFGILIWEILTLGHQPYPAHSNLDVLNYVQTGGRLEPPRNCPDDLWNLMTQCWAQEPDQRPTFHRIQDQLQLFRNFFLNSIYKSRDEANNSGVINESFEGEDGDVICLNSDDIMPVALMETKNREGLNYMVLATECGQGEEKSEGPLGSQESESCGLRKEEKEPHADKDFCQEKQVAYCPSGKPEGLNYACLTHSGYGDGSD
measurement-name: IC50

[[record]]
molecule = "CC(Oc1ccc2ncc(-c3ccc(N4C[C@@H](N)CC4=O)cc3)n2n1)c1cc(C#N)n(C)n1 (stereo partly drawn) [Example 116]"
measurement_name = "IC50"
observed_measurement = "100 to 150 nM"

[[record]]
molecule = "CNC(C)COc1ccc(-c2cnc3ccc(N[C@H](C)c4cccc(F)c4)nn23)cc1 (stereo partly drawn) [Example 38]"
measurement_name = "IC50"
observed_measurement = "< 20 nM"

[[record]]
molecule = "CN(Cc1cc(F)cc(F)c1)c1ccc2ncc(-c3ccc(N4C[C@@H](N)CC4=O)cc3)n2n1 [Example 120]"
measurement_name = "IC50"
observed_measurement = "< 20 nM"

[[record]]
molecule = "C[C@@H](Nc1ccc2ncc(-c3ccc(OCC4CNC4)cc3)n2n1)c1cccc(F)c1 [Example 27]"
measurement_name = "IC50"
observed_measurement = "< 20 nM"

[[record]]
molecule = "CC(Oc1ccc2ncc(-c3ccc(N4C[C@@H](N)CC4=O)cc3)n2n1)c1nccs1 (stereo partly drawn) [Example 105]"
measurement_name = "IC50"
observed_measurement = "20 to 100 nM"

[[record]]
molecule = "C[C@@H](Nc1ccc2ncc(-c3ccc(OCC4(N)CC4)cc3)n2n1)c1cccc(F)c1 [Example 39]"
measurement_name = "IC50"
observed_measurement = "< 20 nM"

[[record]]
molecule = "Fc1cccc(COc2ccc3ncc(-c4ccc(OC[C@H]5CCCN5)cc4)n3n2)c1 [Example 11]"
measurement_name = "IC50"
observed_measurement = "20 to 100 nM"

[[record]]
molecule = "CN(Cc1cccc(F)c1)c1ccc2ncc(-c3ccc(N4CC(N)CC4=O)cc3)n2n1 (stereo not drawn) [Example 82]"
measurement_name = "IC50"
observed_measurement = "< 20 nM"

[[record]]
molecule = "C[C@@H](Nc1ccc2ncc(-c3ccc(OC[C@@H]4CCN4)c(F)c3)n2n1)c1cccc(F)c1 [Example 44]"
measurement_name = "IC50"
observed_measurement = "< 20 nM"


====

target: ROS1 (Homo sapiens, UniProt P08922); construct: purchased Carna Biosciences 08-163; test: ROS1 kinase inhibitory activity evaluation (mobility shift, EZ Reader II); type: biochemical; conditions: ROS1 25 pg/μL, FL-Peptide 22 substrate, three separate measurements
pIC50: −log10 of the molar value.
compounds and their reported pIC50
measurement-name: pIC50

[[record]]
compound = "CN(Cc1cc(F)ccc1F)c1ccc2ncc(-c3ccc(N4C[C@@H](N)CC4=O)nc3)n2n1"
observed_measurement = "8.00 to 9.00"

[[record]]
compound = "CN(Cc1cccc(F)c1F)c1ccc2ncc(-c3ccc(N4C[C@@H](N)CC4=O)nc3)n2n1"
observed_measurement = "8.00 to 9.00"

[[record]]
compound = "C[C@H](N)COc1cccc(-c2cnc3ccc(N[C@H](C)c4cccc(F)c4)nn23)c1"
observed_measurement = "8.00 to 9.00"

[[record]]
compound = "CN[C@H]1CC(=O)N(c2ccc(-c3cnc4ccc(O[C@H](C)c5cncc(F)c5)nn34)cc2)C1"
observed_measurement = "8.00 to 9.00"

[[record]]
compound = "C[C@@H](N)COc1ccc(-c2cnc3ccc(N[C@H](C)c4cccc(F)c4)nn23)cn1"
observed_measurement = "> 9.00"

[[record]]
compound = "CC(Oc1ccc2ncc(-c3ccc(N4C[C@@H](N)CC4=O)cc3)n2n1)c1cncc(Cl)c1 (some centres unmarked)"
observed_measurement = "8.00 to 9.00"

[[record]]
compound = "CN(Cc1cncc(Cl)c1)c1ccc2ncc(-c3ccc(N4CC(C)(N)CC4=O)cc3)n2n1 (centres unmarked)"
observed_measurement = "7.22 to 8.00"

[[record]]
compound = "C[C@@H](N)COc1cccc(-c2cnc3ccc(N[C@H](C)c4cccc(F)c4)nn23)c1"
observed_measurement = "8.00 to 9.00"

[[record]]
compound = "CN(Cc1cccc(F)c1)c1ccc2ncc(-c3ccc(N4CC(C)(N)CC4=O)cc3)n2n1 (single isomer, unassigned) [Example 87]"
observed_measurement = "8.00 to 9.00"

[[record]]
compound = "CC(Oc1ccc2ncc(-c3ccc(N4C[C@@H](N)CC4=O)cc3)n2n1)c1cc(C#N)n(C)n1 (some centres unmarked)"
observed_measurement = "7.22 to 8.00"

[[record]]
compound = "c1ccc(CNc2ccc3ncc(-c4cccc(O[C@@H]5CCNC5)c4)n3n2)cc1"
observed_measurement = "8.00 to 9.00"

[[record]]
compound = "C[C@@H](Nc1ccc2ncc(-c3ccc(N4C[C@@H](N)CC4=O)cc3)n2n1)c1ccccc1"
observed_measurement = "> 9.00"

[[record]]
compound = "C[C@@H](Nc1ccc2ncc(-c3ccc(OC[C@@H]4CCCN4)cc3)n2n1)c1cccc(F)c1"
observed_measurement = "> 9.00"

[[record]]
compound = "CN(Cc1cncc(Cl)c1)c1ccc2ncc(-c3ccc(N4C[C@@H](N)CC4=O)cc3)n2n1"
observed_measurement = "8.00 to 9.00"

[[record]]
compound = "C[C@@H](Nc1ccc2ncc(-c3ccc(OC[C@@H]4CCN4)cc3F)n2n1)c1cccc(F)c1"
observed_measurement = "> 9.00"

[[record]]
compound = "C[C@@H](Nc1ccc2ncc(-c3ccc(N4C[C@@H](N)CC4=O)cc3F)n2n1)c1cccc(F)c1"
observed_measurement = "> 9.00"

[[record]]
compound = "C[C@H](O)[C@@H](N)COc1ccc(-c2cnc3ccc(N[C@H](C)c4cccc(F)c4)nn23)cc1"
observed_measurement = "> 9.00"

[[record]]
compound = "CN(Cc1cccc(F)c1F)c1ccc2ncc(-c3ccc(N4C[C@@H](N)CC4=O)cc3)n2n1"
observed_measurement = "8.00 to 9.00"

[[record]]
compound = "C[C@@H](Nc1ccc2ncc(-c3ccc(SC[C@@H]4CCCN4)cc3)n2n1)c1ccccc1"
observed_measurement = "8.00 to 9.00"

[[record]]
compound = "C[C@@H](Nc1ccc2ncc(-c3ccc(OC[C@@H]4C[C@H](F)CN4)nc3)n2n1)c1cccc(F)c1"
observed_measurement = "> 9.00"


====

molecular target: ROS1 (Homo sapiens); construct: purchased Carna Biosciences 08-163; assay: ROS1 kinase inhibitory activity evaluation (mobility shift, EZ Reader II); type: biochemical; details: ROS1 25 pg/μL, FL-Peptide 22 substrate, three separate measurements
pIC50: −log10 of the molar value.
measurement-name: pIC50

[[record]]
molecule = "C[C@@H](Oc1ccc2ncc(-c3ccc(OC[C@@H]4CCCN4)cc3)n2n1)c1cccc(F)c1"
measurement_name = "pIC50"
observed_measurement = "> 9.00"

[[record]]
molecule = "C[C@@H](Nc1ccc2ncc(-c3ccc(N4C[C@@H](N)CC4=O)c(F)c3)n2n1)c1cccc(F)c1"
measurement_name = "pIC50"
observed_measurement = "> 9.00"

[[record]]
molecule = "CN(Cc1cccc(F)c1)c1ccc2ncc(-c3ccc(N4C[C@@H](N)CC4=O)c(C#N)c3)n2n1"
measurement_name = "pIC50"
observed_measurement = "8.00 to 9.00"

[[record]]
molecule = "NC1CCN(c2ccc(-c3cnc4ccc(OCc5cccc(F)c5)nn34)cc2)C1=O (stereo not shown)"
measurement_name = "pIC50"
observed_measurement = "8.00 to 9.00"

[[record]]
molecule = "C[C@@H](Nc1ccc2ncc(-c3ccc(OCCN(C)C)cc3)n2n1)c1cccc(F)c1"
measurement_name = "pIC50"
observed_measurement = "> 9.00"

[[record]]
molecule = "NC1CC(=O)N(c2ccc(-c3cnc4ccc(OCc5cccc(F)c5)nn34)cc2)C1 (stereo not shown)"
measurement_name = "pIC50"
observed_measurement = "8.00 to 9.00"

[[record]]
molecule = "CC[C@@H](N)COc1ccc(-c2cnc3ccc(N[C@H](C)c4cccc(F)c4)nn23)cc1"
measurement_name = "pIC50"
observed_measurement = "> 9.00"

[[record]]
molecule = "CN(Cc1cc(F)ccc1Cl)c1ccc2ncc(-c3ccc(N4C[C@@H](N)CC4=O)cc3)n2n1"
measurement_name = "pIC50"
observed_measurement = "8.00 to 9.00"

[[record]]
molecule = "CC(Oc1ccc2ncc(-c3ccc(N4C[C@@H](N)CC4=O)cc3)n2n1)c1nccs1 (stereo partly shown)"
measurement_name = "pIC50"
observed_measurement = "7.22 to 8.00"

[[record]]
molecule = "C[C@@H](Nc1ccc2ncc(-c3cccc(OCCN)c3)n2n1)c1cccc(F)c1"
measurement_name = "pIC50"
observed_measurement = "8.00 to 9.00"


====

molecules and their reported IC50
molecular target: ROS1 (Homo sapiens); construct: purchased Carna Biosciences 08-163; experiment: ROS1 kinase inhibitory activity evaluation (mobility shift, EZ Reader II); format: biochemical; conditions: ROS1 25 pg/μL, FL-Peptide 22 substrate, three separate measurements
measurement-name: IC50

[[record]]
molecule = "C[C@@H](Nc1ccc2ncc(-c3ccc(O[C@@H]4CCNC4)cc3)n2n1)c1cccc(F)c1 [Example 22]"
subject_of_test = "ROS1 (Homo sapiens)"
measurement_name = "IC50"
observed_measurement = "< 1 nM"

[[record]]
molecule = "Fc1cccc(COc2ccc3ncc(-c4ccc(OC[C@H]5CCCN5)cc4)n3n2)c1 [Example 11]"
subject_of_test = "ROS1 (Homo sapiens)"
measurement_name = "IC50"
observed_measurement = "1 to 10 nM"

[[record]]
molecule = "C[C@@H](Oc1ccc2ncc(-c3ccc(OC4CCNCC4)cc3)n2n1)c1cccc(F)c1 [Example 15]"
subject_of_test = "ROS1 (Homo sapiens)"
measurement_name = "IC50"
observed_measurement = "1 to 10 nM"

[[record]]
molecule = "C[C@@H](Nc1ccc2ncc(-c3ccc(OC[C@@H]4CC(F)CN4)cc3)n2n1)c1cccc(F)c1 (stereo in doubt) [Example 33]"
subject_of_test = "ROS1 (Homo sapiens)"
measurement_name = "IC50"
observed_measurement = "< 1 nM"

[[record]]
molecule = "C[C@@H](Nc1ccc2ncc(-c3cc(F)cc(OC[C@@H]4CCN4)c3)n2n1)c1cccc(F)c1 [Example 62]"
subject_of_test = "ROS1 (Homo sapiens)"
measurement_name = "IC50"
observed_measurement = "< 1 nM"

[[record]]
molecule = "CN(Cc1cccc(F)c1)c1ccc2ncc(-c3ccc(N4CC(C)(N)CC4=O)cc3)n2n1 (stereo not drawn) [Example 84]"
subject_of_test = "ROS1 (Homo sapiens)"
measurement_name = "IC50"
observed_measurement = "1 to 10 nM"

[[record]]
molecule = "CC(Oc1ccc2ncc(-c3ccc(N4C[C@@H](N)CC4=O)cc3)n2n1)c1cn(C(F)F)nn1 (stereo partly drawn) [Example 115]"
subject_of_test = "ROS1 (Homo sapiens)"
measurement_name = "IC50"
observed_measurement = "10 to 60 nM"

[[record]]
molecule = "CN(Cc1cccc(F)c1)c1ccc2ncc(-c3ccc(N4C[C@@H](N)CC4=O)c(F)c3)n2n1 [Example 83]"
subject_of_test = "ROS1 (Homo sapiens)"
measurement_name = "IC50"
observed_measurement = "1 to 10 nM"

[[record]]
molecule = "NCC1CC(=O)N(c2ccc(-c3cnc4ccc(OCc5cccc(F)c5)nn34)cc2)C1 (stereo not drawn) [Example 74]"
subject_of_test = "ROS1 (Homo sapiens)"
measurement_name = "IC50"
observed_measurement = "1 to 10 nM"

